# Test target: cPLA2 (Homo sapiens)
# Sequence (P47712 1-749): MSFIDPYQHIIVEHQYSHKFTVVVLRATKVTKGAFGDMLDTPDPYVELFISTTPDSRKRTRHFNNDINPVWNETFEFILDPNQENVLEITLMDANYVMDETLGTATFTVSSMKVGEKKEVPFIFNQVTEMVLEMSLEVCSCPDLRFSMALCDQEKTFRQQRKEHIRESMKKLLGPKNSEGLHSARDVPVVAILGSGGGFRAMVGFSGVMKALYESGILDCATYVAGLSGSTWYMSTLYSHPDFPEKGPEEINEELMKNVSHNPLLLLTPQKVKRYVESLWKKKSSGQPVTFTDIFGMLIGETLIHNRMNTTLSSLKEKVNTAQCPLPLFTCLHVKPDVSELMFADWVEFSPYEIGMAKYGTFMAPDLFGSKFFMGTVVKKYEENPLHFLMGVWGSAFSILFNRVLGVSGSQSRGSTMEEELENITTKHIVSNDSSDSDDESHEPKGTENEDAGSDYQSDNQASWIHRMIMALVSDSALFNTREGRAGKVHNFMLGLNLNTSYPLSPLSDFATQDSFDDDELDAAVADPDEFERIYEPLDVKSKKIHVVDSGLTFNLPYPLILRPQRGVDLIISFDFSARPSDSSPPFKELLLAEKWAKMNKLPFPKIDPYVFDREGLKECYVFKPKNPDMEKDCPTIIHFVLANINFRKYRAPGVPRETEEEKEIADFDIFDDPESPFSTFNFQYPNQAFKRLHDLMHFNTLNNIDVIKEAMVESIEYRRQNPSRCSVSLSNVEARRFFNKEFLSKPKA
# Test summary: Coumarin Assay (cPLA2 inhibition)
# Format: biochemical
# Details: CONCENTRATION 6 micromolar; read-out: PERCENT INHIBITION @
Measure name: inhibition at 6 µM (%)
Numbers only; they are read as %.

Exercise: Any idea what its inhibition at 6 µM is? The molecule is `COc1cc(C(=O)NS(=O)(=O)c2nn(C)c(=NC(C)=O)s2)ccc1Cc1cn(C(c2ccccc2)c2ccccc2)c2ccc(NC(=O)OC3CCCC3)cc12`
Solution: 87

Exercise: Further, for `O=C(Nc1cccc(C(=O)O)c1)C(=O)c1cn(Cc2ccc(Cc3ccccc3)cc2)c2ccccc12` ?
Solution: 50

Exercise: And `COc1cc(C(=O)NS(C)(=O)=O)ccc1Cc1cn(C(c2ccccc2)c2ccccc2)c2ccc(NC(=O)OC3CCCC3)cc12` ?
Solution: 50

Exercise: Here is the next molecule: `O=C(Nc1cccc(C(=O)O)c1)C(=O)c1cn(Cc2ccc(Cc3ccccc3)cc2)c2ccc(OCc3ccccc3)cc12`
Solution: 69
